Hey, just so you know, these numbers are from paper PMC11263240.

Experimental Protocol: Semi-physiological pharmacokinetic model of ondansetron systemic and CNS disposition (estimated parameters)
Assay type: in vivo, rat
Measurement Parameters: female, rat, plasma, brain, spinal cord, CSF, iv, 10 mg/kg; read-out: kel Systemic elimination rate constant (converted)
Where a name gives a salt, the structure may show the parent alone.
Measured Quantity: k el (s⁻¹)
Supply the numeric figure in s⁻¹, leaving out any unit text.

[ask] Given the compound Cc1nccn1CC1CCc2c(c3ccccc3n2C)C1=O (stereo not shown) [Ondansetron, Ondansetron hydrochloride] , what is its reported k el?
[reply] 0.00141

###

Experimental Protocol: Semi-physiological pharmacokinetic model of ondansetron systemic and CNS disposition (estimated parameters)
Type: in vivo, rat
Measurement Parameters: male, rat, plasma, brain, spinal cord, CSF, iv, 10 mg/kg; read-out: kel Systemic elimination rate constant (converted)
Counter-ions that a name gives are not always drawn.
Measured Quantity: k el (s⁻¹)
Supply the numeric figure in s⁻¹, leaving out any unit text.

[ask] Given the compound Cc1nccn1CC1CCc2c(c3ccccc3n2C)C1=O (stereo not shown) [Ondansetron, Ondansetron hydrochloride] , what is its reported k el?
[reply] 0.001
